- SYSTEM_TESTED: NT-3 growth factor receptor (Homo sapiens)
- Sequence (Q16288 whole entry): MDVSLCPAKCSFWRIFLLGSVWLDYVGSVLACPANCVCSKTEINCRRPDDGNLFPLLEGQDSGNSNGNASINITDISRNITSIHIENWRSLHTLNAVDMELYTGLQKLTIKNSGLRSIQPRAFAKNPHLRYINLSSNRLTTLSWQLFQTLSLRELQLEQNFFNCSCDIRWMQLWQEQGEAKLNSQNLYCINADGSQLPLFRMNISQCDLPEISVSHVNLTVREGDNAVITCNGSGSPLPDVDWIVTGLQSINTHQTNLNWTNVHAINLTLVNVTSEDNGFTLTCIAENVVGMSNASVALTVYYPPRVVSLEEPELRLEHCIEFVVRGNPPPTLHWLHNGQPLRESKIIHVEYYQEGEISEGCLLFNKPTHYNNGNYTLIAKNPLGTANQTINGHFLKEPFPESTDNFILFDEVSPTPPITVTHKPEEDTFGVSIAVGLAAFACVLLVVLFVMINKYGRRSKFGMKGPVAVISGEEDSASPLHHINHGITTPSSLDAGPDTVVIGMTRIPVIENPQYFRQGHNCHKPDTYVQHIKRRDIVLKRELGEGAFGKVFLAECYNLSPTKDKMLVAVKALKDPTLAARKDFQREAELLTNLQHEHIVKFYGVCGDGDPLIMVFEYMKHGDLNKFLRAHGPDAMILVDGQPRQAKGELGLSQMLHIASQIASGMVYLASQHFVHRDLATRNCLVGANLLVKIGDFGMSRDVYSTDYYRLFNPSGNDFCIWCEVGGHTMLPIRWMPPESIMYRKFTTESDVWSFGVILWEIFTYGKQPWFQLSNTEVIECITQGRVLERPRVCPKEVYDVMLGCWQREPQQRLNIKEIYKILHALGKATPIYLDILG
- TEST_NAME: Inhibition of TrkC (unknown origin)
pIC50: −log10 of the molar value.
MEASURED_ENDPOINT: pIC50

Need pIC50 of CNC(=O)Nc1ccc2c(c1)CC[C@@]21OC(=O)N(CC(=O)N(Cc2ccc(F)cc2)[C@@H](C)C(F)(F)F)C1=O , thanks.
< 5.00

###

- SYSTEM_TESTED: Histone acetyltransferase p300 (Homo sapiens, UniProt Q09472)
- Sequence (Q09472 whole entry, the tested form may be a part): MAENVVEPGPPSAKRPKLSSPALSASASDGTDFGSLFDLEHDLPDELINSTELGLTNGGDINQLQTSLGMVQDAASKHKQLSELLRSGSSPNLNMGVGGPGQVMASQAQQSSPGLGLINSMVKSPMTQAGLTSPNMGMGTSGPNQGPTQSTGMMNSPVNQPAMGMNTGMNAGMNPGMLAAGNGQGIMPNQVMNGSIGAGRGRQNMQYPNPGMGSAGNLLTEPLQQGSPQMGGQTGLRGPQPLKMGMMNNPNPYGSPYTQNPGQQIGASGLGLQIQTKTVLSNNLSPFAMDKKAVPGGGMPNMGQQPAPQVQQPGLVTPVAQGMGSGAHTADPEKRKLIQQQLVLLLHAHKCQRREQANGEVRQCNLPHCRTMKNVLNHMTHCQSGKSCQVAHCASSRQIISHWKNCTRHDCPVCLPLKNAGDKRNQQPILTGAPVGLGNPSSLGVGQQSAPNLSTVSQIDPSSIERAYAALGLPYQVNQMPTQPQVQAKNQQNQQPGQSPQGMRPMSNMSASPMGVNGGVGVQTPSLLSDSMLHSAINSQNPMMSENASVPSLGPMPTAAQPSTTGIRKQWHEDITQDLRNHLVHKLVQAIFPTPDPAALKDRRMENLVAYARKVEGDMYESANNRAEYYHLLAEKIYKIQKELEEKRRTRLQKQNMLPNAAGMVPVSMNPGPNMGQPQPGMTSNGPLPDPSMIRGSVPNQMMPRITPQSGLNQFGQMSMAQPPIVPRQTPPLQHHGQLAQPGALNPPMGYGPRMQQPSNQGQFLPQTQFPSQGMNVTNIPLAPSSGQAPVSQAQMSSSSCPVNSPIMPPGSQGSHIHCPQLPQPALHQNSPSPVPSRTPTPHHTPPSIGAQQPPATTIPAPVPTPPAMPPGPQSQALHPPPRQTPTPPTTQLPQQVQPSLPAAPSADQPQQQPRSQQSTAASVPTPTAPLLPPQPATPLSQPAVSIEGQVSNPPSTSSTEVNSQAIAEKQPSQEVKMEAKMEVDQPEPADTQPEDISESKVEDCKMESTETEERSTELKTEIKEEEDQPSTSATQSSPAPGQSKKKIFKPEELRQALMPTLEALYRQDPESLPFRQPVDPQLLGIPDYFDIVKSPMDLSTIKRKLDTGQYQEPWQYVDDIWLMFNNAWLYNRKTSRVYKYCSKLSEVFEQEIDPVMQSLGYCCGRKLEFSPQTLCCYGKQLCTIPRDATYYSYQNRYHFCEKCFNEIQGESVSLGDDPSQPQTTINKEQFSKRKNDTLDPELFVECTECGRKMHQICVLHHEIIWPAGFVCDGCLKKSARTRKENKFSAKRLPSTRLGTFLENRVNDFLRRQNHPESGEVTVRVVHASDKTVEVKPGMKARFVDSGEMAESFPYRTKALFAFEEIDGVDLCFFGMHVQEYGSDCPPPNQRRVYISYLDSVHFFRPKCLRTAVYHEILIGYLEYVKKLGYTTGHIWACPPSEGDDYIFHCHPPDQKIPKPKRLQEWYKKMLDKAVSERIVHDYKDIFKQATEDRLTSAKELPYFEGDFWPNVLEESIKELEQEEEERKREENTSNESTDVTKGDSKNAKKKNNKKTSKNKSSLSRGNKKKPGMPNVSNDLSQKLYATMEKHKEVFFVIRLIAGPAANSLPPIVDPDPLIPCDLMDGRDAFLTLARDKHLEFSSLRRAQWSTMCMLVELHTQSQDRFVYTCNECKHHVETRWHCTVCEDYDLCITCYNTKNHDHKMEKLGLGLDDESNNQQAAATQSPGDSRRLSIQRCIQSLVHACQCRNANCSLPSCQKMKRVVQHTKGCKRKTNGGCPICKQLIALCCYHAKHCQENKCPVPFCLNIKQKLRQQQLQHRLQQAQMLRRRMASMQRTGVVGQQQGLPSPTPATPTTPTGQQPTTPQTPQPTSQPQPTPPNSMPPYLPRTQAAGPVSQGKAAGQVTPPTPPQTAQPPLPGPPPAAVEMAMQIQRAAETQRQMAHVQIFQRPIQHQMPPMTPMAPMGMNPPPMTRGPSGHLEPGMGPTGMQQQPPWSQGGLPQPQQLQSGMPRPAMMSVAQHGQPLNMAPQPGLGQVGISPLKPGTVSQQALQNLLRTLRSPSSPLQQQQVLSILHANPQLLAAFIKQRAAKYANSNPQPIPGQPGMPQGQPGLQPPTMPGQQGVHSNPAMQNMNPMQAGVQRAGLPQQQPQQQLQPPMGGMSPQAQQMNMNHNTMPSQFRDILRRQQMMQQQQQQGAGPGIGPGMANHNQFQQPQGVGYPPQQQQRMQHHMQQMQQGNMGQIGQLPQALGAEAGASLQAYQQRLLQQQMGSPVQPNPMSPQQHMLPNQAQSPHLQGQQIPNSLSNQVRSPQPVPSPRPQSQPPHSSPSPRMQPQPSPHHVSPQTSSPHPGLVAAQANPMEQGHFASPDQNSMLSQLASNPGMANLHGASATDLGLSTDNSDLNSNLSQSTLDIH
- TEST_NAME: Inhibition of p300 HAT domain (unknown origin) using Biotin-C6-GRGKGGKGLGKGGAK as substrate pretreated with enzyme for 30 mins followed by incubation with substrate for 1 hr by radiometric scintillation proximity assay
Known pIC50 of a selection of compounds
Scale note: pIC50 = -log10(concentration in M).

Check out these entries, answers already filled in.
>  <COMPOUND>
CC(C1CC1)N(Cc1ccccc1)C(=O)CN1C(=O)NC(Cc2c[nH]c3ccccc23)C1=O (centres undefined)

>  <SYSTEM_TESTED>
Histone acetyltransferase p300 (Homo sapiens, UniProt Q09472)

>  <pIC50>
5.29

$$$$
>  <COMPOUND>
C=C(C)[C@H](CC=C(C)C)C[C@]12C[C@H](CC=C(C)C)C(C)(C)[C@](CC=C(C)C)(C(=O)C(C(=O)c3ccc(O)c(O)c3)=C1O)C2=O

>  <SYSTEM_TESTED>
Histone acetyltransferase p300 (Homo sapiens, UniProt Q09472)

>  <pIC50>
5.30

$$$$

Could you share what pIC50 was measured for NS(=O)(=O)c1ccc(NC(=O)CN2C(=O)SC(=C3CCCCC3)C2=O)cc1 , tested on Histone acetyltransferase p300 (Homo sapiens, UniProt Q09472)?
4.94

###

- SYSTEM_TESTED: High affinity nerve growth factor receptor (Homo sapiens, UniProt P04629)
- Sequence (P04629 whole entry): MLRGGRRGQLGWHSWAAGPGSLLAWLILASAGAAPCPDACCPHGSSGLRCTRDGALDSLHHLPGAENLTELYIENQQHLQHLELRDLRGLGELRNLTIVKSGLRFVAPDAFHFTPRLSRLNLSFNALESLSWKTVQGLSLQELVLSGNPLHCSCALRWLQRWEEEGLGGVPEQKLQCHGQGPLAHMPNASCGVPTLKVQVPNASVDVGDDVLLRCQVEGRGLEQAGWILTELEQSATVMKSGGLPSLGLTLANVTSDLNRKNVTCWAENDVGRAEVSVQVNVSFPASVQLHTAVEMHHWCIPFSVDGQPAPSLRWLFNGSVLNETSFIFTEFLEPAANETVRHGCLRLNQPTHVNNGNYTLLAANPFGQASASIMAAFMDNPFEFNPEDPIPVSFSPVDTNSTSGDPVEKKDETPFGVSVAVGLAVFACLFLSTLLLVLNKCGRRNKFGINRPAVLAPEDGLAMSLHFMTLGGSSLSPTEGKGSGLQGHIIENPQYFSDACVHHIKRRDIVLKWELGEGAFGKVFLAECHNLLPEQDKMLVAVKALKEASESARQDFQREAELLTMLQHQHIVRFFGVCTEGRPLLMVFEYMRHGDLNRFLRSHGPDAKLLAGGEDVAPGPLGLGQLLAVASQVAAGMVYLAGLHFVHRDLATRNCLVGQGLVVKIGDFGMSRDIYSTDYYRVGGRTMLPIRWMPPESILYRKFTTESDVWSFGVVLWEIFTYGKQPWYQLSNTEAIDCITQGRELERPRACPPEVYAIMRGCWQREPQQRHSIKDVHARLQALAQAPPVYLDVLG
- TEST_NAME: Inhibition of TrkA (unknown origin)
pIC50: −log10 of the molar value.
MEASURED_ENDPOINT: pIC50

Could you share what pIC50 was measured for CNC(=O)Nc1ccc2c(c1)CC[C@@]21OC(=O)N(CC(=O)N(Cc2ccc(F)cc2)[C@@H](C)C(F)(F)F)C1=O [A-485] , tested on High affinity nerve growth factor receptor (Homo sapiens, UniProt P04629)?
< 5.00

###

- TEST_NAME: AUC in CB17 SCID mouse xenografted with LuCaP-77 CR cell at 50 mg/kg, ip administered for 7 days
- Type: ADME, organism-based
- SETTINGS: in vivo, time 7 day
MEASURED_ENDPOINT: AUC at 168 h (ng·h/mL)
Respond numerically; units are ng·h/mL and should not be typed.

Need AUC at 168 h of CNC(=O)Nc1ccc2c(c1)CC[C@@]21OC(=O)N(CC(=O)N(Cc2ccc(F)cc2)[C@@H](C)C(F)(F)F)C1=O [A-485] , thanks.
91200

###

- SYSTEM_TESTED: Mitogen-activated protein kinase 14 (Homo sapiens)
- Sequence (Q16539 whole entry): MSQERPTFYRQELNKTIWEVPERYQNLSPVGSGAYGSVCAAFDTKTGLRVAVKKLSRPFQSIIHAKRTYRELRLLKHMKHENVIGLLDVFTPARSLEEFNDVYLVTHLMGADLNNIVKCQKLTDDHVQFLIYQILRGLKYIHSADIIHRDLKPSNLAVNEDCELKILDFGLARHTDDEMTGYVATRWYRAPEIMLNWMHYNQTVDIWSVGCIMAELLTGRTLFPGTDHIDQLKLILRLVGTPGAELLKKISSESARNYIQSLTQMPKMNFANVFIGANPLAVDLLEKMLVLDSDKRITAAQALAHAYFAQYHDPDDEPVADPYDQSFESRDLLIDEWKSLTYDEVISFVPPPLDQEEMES
- TEST_NAME: Inhibition of p38alpha (unknown origin)
MEASURED_ENDPOINT: IC50

Need IC50 of CNC(=O)Nc1ccc2c(c1)CC[C@@]21OC(=O)N(CC(=O)N(Cc2ccc(F)cc2)[C@@H](C)C(F)(F)F)C1=O , thanks.
> 10 µM
